ASSAY PROTOCOL: Clinical bioequivalence study, IV (1.5-hr infusion) vs oral TMZ, primary CNS malignancies
Format: in vivo, human
CONDITION DETAILS: human, plasma; IV 1.5 hr infusion, 150 mg/m^2/day, Time 1.5 hr, n = 19; read-out: Mean Temozolomide Concentration
ENDPOINT LABEL: concentration at 1.5 hr (ng/mL)

1) Cn1nnc2c(C(N)=O)ncn2c1=O [TMZ] :: 7080

---

ASSAY PROTOCOL: Clinical bioequivalence study, IV (1.5-hr infusion) vs oral TMZ, primary CNS malignancies
Type: in vivo, human
CONDITION DETAILS: human, plasma, po, 150 mg/m2, TMZ PO, 150 mg/m^2/day, n = 19; read-out: AUC(tf) of TMZ, Mean
ENDPOINT LABEL: AUC (ng·h/mL)

1. Cn1nnc2c(C(N)=O)ncn2c1=O [TMZ] :: 22000

---

ASSAY PROTOCOL: Clinical bioequivalence study, IV (1.5-hr infusion) vs oral TMZ, primary CNS malignancies
Assay type: in vivo, human
CONDITION DETAILS: human, plasma; PO, 150 mg/m^2/day, Time 2.5 hr, n = 19; read-out: Mean Temozolomide Concentration
ENDPOINT LABEL: concentration at 2.5 hr (ng/mL)

1. Cn1nnc2c(C(N)=O)ncn2c1=O [TMZ] :: 4000

---

ASSAY PROTOCOL: Clinical bioequivalence study, IV (1.5-hr infusion) vs oral TMZ, primary CNS malignancies
Type: in vivo, human
CONDITION DETAILS: human, plasma, iv, 150 mg/m2, IV infusion about 1 hour to about 2 hours, single dose of 150 mg/m2; read-out: arithmetic mean AUC (from time zero to infinity) for temozolomide
Protocol: Twenty-two patients with primary CNS malignancies were enrolled in a clinical bioequivalence study and treated according to the methods of the present invention. Nineteen of the patients were considered to be pharmacokinetic evaluable. This study was a randomized, open-label, 2-way cross over study of the PK of oral and IV TMZ. The IV formulation of Example 3 is administered at a dosage of 150-200 mg/m^2 by intravenous infusion over a period of about 1.5 hours. […]
ENDPOINT LABEL: AUC

1. Cn1nnc2c(C(N)=O)ncn2c1=O [TMZ] :: ~25000 ng·h/mL

---

ASSAY PROTOCOL: Clinical bioequivalence study, IV (1.5-hr infusion) vs oral TMZ, primary CNS malignancies
Format: in vivo, human
CONDITION DETAILS: human, plasma; IV 1.5 hr infusion, 150 mg/m^2/day, Time 4 hr, n = 19; read-out: Mean Temozolomide Concentration
ENDPOINT LABEL: concentration at 4 hr (ng/mL)

1. Cn1nnc2c(C(N)=O)ncn2c1=O :: 2810

---

ASSAY PROTOCOL: Clinical bioequivalence study, IV (1.5-hr infusion) vs oral TMZ, primary CNS malignancies
Format: in vivo, human
CONDITION DETAILS: human, plasma; IV 1.5 hr infusion, 150 mg/m^2/day, Time 1 hr, n = 19; read-out: Mean Temozolomide Concentration
Protocol: Twenty-two patients with primary CNS malignancies were enrolled in a clinical bioequivalence study and treated according to the methods of the present invention. Nineteen of the patients were considered to be pharmacokinetic evaluable. This study was a randomized, open-label, 2-way cross over study of the PK of oral and IV TMZ. The IV formulation of Example 3 is administered at a dosage of 150-200 mg/m^2 by intravenous infusion over a period of about 1.5 hours. […]
ENDPOINT LABEL: concentration at 1 hr (ng/mL)

1. Cn1nnc2c(C(N)=O)ncn2c1=O [TMZ] :: 5490
